Entries and their log10 concentration at 4 h
Assay: pharmacokinetic behavior in baboons, 20 mg/kg (Tables 4 and 6)
Type: in vivo
Conditions: baboon, plasma, 20 mg/kg, 240 minutes
RESULT_TYPE: log10 concentration at 4 h (log10 of the value in µg/mL)

COMPOUND	log10 concentration at 4 h
CC(C)(O/N=C(\C(=O)NC1C(=O)N2C(C(=O)O)=C(COC(=O)c3ccc(NC(=O)[C@@H](N)CCCN)c(O)c3)CSC12)c1csc(N)n1)C(=O)O (stereo partly drawn) [SR 44128]	2.15
CC(C)(ON=C(C(=O)NC1C(=O)N2C(C(=O)O)=C(COC(=O)c3ccc(NC(=O)CCN)cc3)CSC12)c1csc(N)n1)C(=O)O (stereo not drawn) [Product B, reference compound]	1.10
CC(C)(ON=C(C(=O)NC1C(=O)N2C(C(=O)O)=C(COC(=O)c3ccc(NC(=O)CN)cc3)CSC12)c1csc(N)n1)C(=O)O (stereo not drawn) [Product A, reference compound]	1.56
CC(C)(O/N=C(\C(=O)NC1C(=O)N2C(C(=O)O)=C(COC(=O)c3ccc(NC(=O)C(N)CCN)c(O)c3)CSC12)c1csc(N)n1)C(=O)O (stereo not drawn) [SR 44130]	2.13
CC(C)(O/N=C(\C(=O)NC1C(=O)N2C(C(=O)O)=C(COC(=O)c3ccc(NC(=O)CCN)c(O)c3)CSC12)c1csc(N)n1)C(=O)O (stereo not drawn) [SR 43904]	1.76
CC(C)(O/N=C(\C(=O)NC1C(=O)N2C(C(=O)O)=C(COC(=O)c3ccc(NC(=O)CN)c(O)c3)CSC12)c1csc(N)n1)C(=O)O (stereo not drawn) [SR 43753]	2.08

* * *

Assay: pharmacokinetic behavior in baboons, 20 mg/kg (Tables 4 and 6)
Assay type: in vivo
Details: baboon, plasma, 20 mg/kg, 330 minutes

COMPOUND	concentration at 5.5 h [ng/mL]
CC(C)(O/N=C(\C(=O)NC1C(=O)N2C(C(=O)O)=C(COC(=O)c3ccc(NC(=O)CN)c(O)c3)CSC12)c1csc(N)n1)C(=O)O (centres unmarked)	97600
CC(C)(ON=C(C(=O)NC1C(=O)N2C(C(=O)O)=C(COC(=O)c3ccc(NC(=O)CCN)cc3)CSC12)c1csc(N)n1)C(=O)O (centres unmarked) [Product B, reference compound]	6800
CC(C)(O/N=C(\C(=O)NC1C(=O)N2C(C(=O)O)=C(COC(=O)c3ccc(NC(=O)CCN)c(O)c3)CSC12)c1csc(N)n1)C(=O)O (centres unmarked)	39900
CC(C)(ON=C(C(=O)NC1C(=O)N2C(C(=O)O)=C(COC(=O)c3ccc(NC(=O)CN)cc3)CSC12)c1csc(N)n1)C(=O)O (centres unmarked) [Product A, reference compound]	23700
CC(C)(O/N=C(\C(=O)NC1C(=O)N2C(C(=O)O)=C(COC(=O)c3ccc(NC(=O)C(N)CCN)c(O)c3)CSC12)c1csc(N)n1)C(=O)O (centres unmarked)	93800

* * *

Assay: pharmacokinetic behavior in baboons, 20 mg/kg (Tables 4 and 6)
Assay type: in vivo
Conditions: baboon, plasma, 20 mg/kg, 300 minutes
RESULT_TYPE: log10 of concentration at 5 h (log10 of the value in µg/mL)

MOLECULE	RESULT_TYPE	OBSERVED_VALUE
CC(C)(ON=C(C(=O)NC1C(=O)N2C(C(=O)O)=C(COC(=O)c3ccc(NC(=O)CCN)cc3)CSC12)c1csc(N)n1)C(=O)O (stereo not drawn) [Product B, reference compound]	log10 of concentration at 5 h	0.92
CC(C)(O/N=C(\C(=O)NC1C(=O)N2C(C(=O)O)=C(COC(=O)c3ccc(NC(=O)[C@@H](N)CCCN)c(O)c3)CSC12)c1csc(N)n1)C(=O)O (stereo partly drawn) [SR 44128]	log10 of concentration at 5 h	2.09
CC(C)(O/N=C(\C(=O)NC1C(=O)N2C(C(=O)O)=C(COC(=O)c3ccc(NC(=O)C(N)CCN)c(O)c3)CSC12)c1csc(N)n1)C(=O)O (stereo not drawn) [SR 44130]	log10 of concentration at 5 h	2.04
CC(C)(O/N=C(\C(=O)NC1C(=O)N2C(C(=O)O)=C(COC(=O)c3ccc(NC(=O)CN)c(O)c3)CSC12)c1csc(N)n1)C(=O)O (stereo not drawn) [SR 43753]	log10 of concentration at 5 h	2.05
CC(C)(ON=C(C(=O)NC1C(=O)N2C(C(=O)O)=C(COC(=O)c3ccc(NC(=O)CN)cc3)CSC12)c1csc(N)n1)C(=O)O (stereo not drawn) [Product A, reference compound]	log10 of concentration at 5 h	1.43
CC(C)(O/N=C(\C(=O)NC1C(=O)N2C(C(=O)O)=C(COC(=O)c3ccc(NC(=O)CCN)c(O)c3)CSC12)c1csc(N)n1)C(=O)O (stereo not drawn) [SR 43904]	log10 of concentration at 5 h	1.73

* * *

Tested on: Klebsiella pneumoniae R30
Entries and their MIC

COMPOUND	UNIT_OF_MEASUREMENT	MIC
CO/N=C(\C(=O)NC1C(=O)N2C(C(=O)O)=C(COC(=O)c3ccc(NC(=O)[C@@H](N)CCCN)c(O)c3)CSC12)c1csc(N)n1 (stereo partly drawn) [SR 44219]	µg/mL	4
CC(C)(O/N=C(\C(=O)NC1C(=O)N2C(C(=O)O)=C(COC(=O)c3ccc(NC(=O)CN)c(O)c3)CSC12)c1csc(N)n1)C(=O)O (stereo not drawn) [SR 43753]	µg/mL	1
CO/N=C(\C(=O)NC1C(=O)N2C(C(=O)O)=C(COC(=O)c3ccc(NC(=O)CCN)c(O)c3)CSC12)c1csc(N)n1 (stereo not drawn) [SR 43853]	µg/mL	4

* * *

Test: pharmacokinetic behavior in baboons, 20 mg/kg (Tables 4 and 6)
Assay type: in vivo
Conditions: baboon, plasma, 20 mg/kg, 45 minutes
API: label(entry) gives Criterion met if the entry's concentration at 0.75 h is strictly smaller than 60 µg/mL; on equality or larger values it gives Criterion not met.

COMPOUND	LABEL_CLASS
CC(C)(ON=C(C(=O)NC1C(=O)N2C(C(=O)O)=C(COC(=O)c3ccc(NC(=O)CCN)cc3)CSC12)c1csc(N)n1)C(=O)O (stereo not drawn) [Product B, reference compound]	Criterion met
CC(C)(O/N=C(\C(=O)NC1C(=O)N2C(C(=O)O)=C(COC(=O)c3ccc(NC(=O)CN)c(O)c3)CSC12)c1csc(N)n1)C(=O)O (stereo not drawn)	Criterion not met
CC(C)(O/N=C(\C(=O)NC1C(=O)N2C(C(=O)O)=C(COC(=O)c3ccc(NC(=O)[C@@H](N)CCCN)c(O)c3)CSC12)c1csc(N)n1)C(=O)O (stereo partly drawn)	Criterion not met
CC(C)(O/N=C(\C(=O)NC1C(=O)N2C(C(=O)O)=C(COC(=O)c3ccc(NC(=O)C(N)CCN)c(O)c3)CSC12)c1csc(N)n1)C(=O)O (stereo not drawn)	Criterion not met
CC(C)(O/N=C(\C(=O)NC1C(=O)N2C(C(=O)O)=C(COC(=O)c3ccc(NC(=O)CCN)c(O)c3)CSC12)c1csc(N)n1)C(=O)O (stereo not drawn)	Criterion not met

* * *

Tested on: Klebsiella pneumoniae R30
Entries and their MIC
RESULT_TYPE: MIC (µg/mL)

MOLECULE	RESULT_TYPE	UNIT_OF_MEASUREMENT	OBSERVED_VALUE
CC(C)(O/N=C(\C(=O)NC1C(=O)N2C(C(=O)O)=C(COC(=O)c3ccc(NC(=O)[C@@H](N)CCCN)c(O)c3)CSC12)c1csc(N)n1)C(=O)O (stereo partly drawn)	MIC	µg/mL	1
CO/N=C(\C(=O)NC1C(=O)N2C(C(=O)O)=C(COC(=O)c3ccc(NC(=O)CN)c(O)c3)CSC12)c1csc(N)n1 (stereo not drawn)	MIC	µg/mL	4
CO/N=C(\C(=O)NC1C(=O)N2C(C(=O)O)=C(COC(=O)c3ccc(NS(=O)(=O)CCN)c(O)c3)CSC12)c1csc(N)n1 (stereo not drawn)	MIC	µg/mL	4
CO/N=C(\C(=O)NC1C(=O)N2C(C(=O)O)=C(COC(=O)c3ccc(NC(=O)C(N)CCN)c(O)c3)CSC12)c1csc(N)n1 (stereo not drawn)	MIC	µg/mL	8
CC(C)(O/N=C(\C(=O)NC1C(=O)N2C(C(=O)O)=C(COC(=O)c3ccc(NC(=O)C(N)CCN)c(O)c3)CSC12)c1csc(N)n1)C(=O)O (stereo not drawn)	MIC	µg/mL	1
CC(C)(O/N=C(\C(=O)NC1C(=O)N2C(C(=O)O)=C(COC(=O)c3ccc(NC(=O)CCN)c(O)c3)CSC12)c1csc(N)n1)C(=O)O (stereo not drawn)	MIC	µg/mL	1

* * *

Experiment: pharmacokinetic behavior in baboons, 20 mg/kg (Tables 4 and 6)
Assay type: in vivo
Conditions: baboon, plasma, 20 mg/kg, 20 minutes
RESULT_TYPE: concentration at 20 min (µg/mL)

MOLECULE	UNIT_OF_MEASUREMENT	OBSERVED_VALUE
CC(C)(O/N=C(\C(=O)NC1C(=O)N2C(C(=O)O)=C(COC(=O)c3ccc(NC(=O)CN)c(O)c3)CSC12)c1csc(N)n1)C(=O)O (centres unmarked)	µg/mL	69.1
CC(C)(O/N=C(\C(=O)NC1C(=O)N2C(C(=O)O)=C(COC(=O)c3ccc(NC(=O)[C@@H](N)CCCN)c(O)c3)CSC12)c1csc(N)n1)C(=O)O (some centres unmarked)	µg/mL	115
CC(C)(ON=C(C(=O)NC1C(=O)N2C(C(=O)O)=C(COC(=O)c3ccc(NC(=O)CN)cc3)CSC12)c1csc(N)n1)C(=O)O (centres unmarked) [Product A, reference compound]	µg/mL	36.8
CC(C)(ON=C(C(=O)NC1C(=O)N2C(C(=O)O)=C(COC(=O)c3ccc(NC(=O)CCN)cc3)CSC12)c1csc(N)n1)C(=O)O (centres unmarked) [Product B, reference compound]	µg/mL	16.4
CC(C)(O/N=C(\C(=O)NC1C(=O)N2C(C(=O)O)=C(COC(=O)c3ccc(NC(=O)C(N)CCN)c(O)c3)CSC12)c1csc(N)n1)C(=O)O (centres unmarked)	µg/mL	60.9
